- assay.method.text: in vitro
- run.parameters: human, plasma
result.type: half-life
Please answer in the form of a number followed by its unit of measurement.

Query string: Requested field: half-life. Item: CC(C)[C@H](N)C(=O)OCC(CO)OCn1cnc2c(=O)nc(N)[nH]c21 (some centres unmarked)
Result string: 5.05 h

Query string: Returns the measured half-life for the input compound. Input: CC(C)[C@H](N)C(=O)OCCOCn1cnc2c(=O)[nH]c(N)nc21
Result string: 5.2 h

---

- target.desc: human dipeptide transporter, hPept1 (Homo sapiens, UniProt P46059)
- Sequence (P46059 whole entry): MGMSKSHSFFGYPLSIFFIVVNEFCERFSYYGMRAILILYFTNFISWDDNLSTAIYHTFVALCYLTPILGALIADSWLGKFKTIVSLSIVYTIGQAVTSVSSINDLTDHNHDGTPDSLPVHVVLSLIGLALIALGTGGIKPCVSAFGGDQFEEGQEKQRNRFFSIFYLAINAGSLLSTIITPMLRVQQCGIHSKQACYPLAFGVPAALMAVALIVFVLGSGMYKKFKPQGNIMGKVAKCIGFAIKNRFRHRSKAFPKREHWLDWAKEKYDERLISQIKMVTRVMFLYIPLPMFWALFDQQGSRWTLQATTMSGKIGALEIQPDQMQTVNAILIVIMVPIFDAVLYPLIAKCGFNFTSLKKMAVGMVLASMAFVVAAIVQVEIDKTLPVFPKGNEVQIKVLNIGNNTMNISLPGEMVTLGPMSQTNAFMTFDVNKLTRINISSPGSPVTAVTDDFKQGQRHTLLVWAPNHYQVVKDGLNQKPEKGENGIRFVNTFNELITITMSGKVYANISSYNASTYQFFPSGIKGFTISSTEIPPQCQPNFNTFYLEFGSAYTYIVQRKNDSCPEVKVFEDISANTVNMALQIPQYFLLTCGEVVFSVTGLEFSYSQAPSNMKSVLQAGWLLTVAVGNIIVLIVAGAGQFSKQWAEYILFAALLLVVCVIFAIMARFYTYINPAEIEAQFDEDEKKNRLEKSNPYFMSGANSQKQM
- run.parameters: pH 6
result.type: HeLa/hPEPT1 uptake
Number only, please.

Query string: Report HeLa/hPEPT1 uptake for Nc1ncnc2c1ncn2[C@@H]1O[C@H](COC(=O)[C@@H]2CCCN2)[C@@H](O)[C@@H]1O please.
Result string: 40.8

Query string: Which HeLa/hPEPT1 uptake is listed for Nc1ncnc2c1ncn2[C@@H]1O[C@H](COC(=O)[C@@H](N)CC(=O)O)[C@@H](O)[C@@H]1O ?
Result string: 5.0

Query string: Any idea what HeLa/hPEPT1 uptake was measured for CC(C)[C@H](N)C(=O)OC[C@H]1O[C@@H](n2cnc3c(N)ncnc32)[C@@H](O)[C@@H]1O ?
Result string: 80.3

Query string: What value of HeLa/hPEPT1 uptake has been reported for the following compound? CC[C@H](C)[C@H](N)C(=O)OC[C@H]1O[C@@H](n2cnc3c(N)ncnc32)[C@@H](O)[C@@H]1O
Result string: 202.0

---

Consider the following compounds; for each one, report its t1/2 Caco-2 cell homogenates.

Query string: Reported t1/2 Caco-2 cell homogenates for CC[C@H](C)[C@H](N)C(=O)OC[C@H]1O[C@@H](n2ccc(N)nc2=O)C(F)(F)[C@@H]1O : what is it?
Result string: 75.3 ± 2.8 min

Query string: Given the compound CC[C@H](C)[C@H](N)C(=O)O[C@@H]1[C@@H](CO)O[C@@H](n2ccc(N)nc2=O)C1(F)F , what is its reported t1/2 Caco-2 cell homogenates?
Result string: 10.6 ± 0.3 min

Query string: Quick one: t1/2 Caco-2 cell homogenates for CC(C)[C@@H](N)C(=O)OC[C@H]1O[C@@H](n2ccc(N)nc2=O)C(F)(F)[C@@H]1OC(=O)[C@H](N)C(C)C ?
Result string: 10.3 ± 0.7 min

Query string: Fill in: t1/2 Caco-2 cell homogenates of Nc1ccn([C@@H]2O[C@H](COC(=O)[C@H](N)Cc3ccccc3)[C@@H](OC(=O)[C@H](N)Cc3ccccc3)C2(F)F)c(=O)n1 is ___
Result string: 8.3 ± 0.6 min

Query string: Look up t1/2 Caco-2 cell homogenates: CC(C)[C@H](N)C(=O)O[C@@H]1[C@@H](CO)O[C@@H](n2ccc(N)nc2=O)C1(F)F
Result string: 5.0 ± 0.1 min

Query string: Can you look up the measured t1/2 Caco-2 cell homogenates of Nc1ccn([C@@H]2O[C@H](CO)[C@@H](OC(=O)[C@H](N)Cc3ccccc3)C2(F)F)c(=O)n1 for me?
Result string: 8.8 ± 0.1 min

Query string: # t1/2 Caco-2 cell homogenates lookup, item Nc1ccn([C@@H]2O[C@H](COC(=O)[C@@H](N)Cc3ccccc3)[C@@H](O)C2(F)F)c(=O)n1
Result string: 3.2 ± 0.1 min

Query string: What does the data say about its t1/2 Caco-2 cell homogenates? Entry: Nc1ccn([C@@H]2O[C@H](CO)[C@@H](OC(=O)[C@@H](N)Cc3ccccc3)C2(F)F)c(=O)n1
Result string: 0.8 ± 0.0 min

Query string: Report t1/2 Caco-2 cell homogenates for CC(C)[C@@H](N)C(=O)OC[C@H]1O[C@@H](n2ccc(N)nc2=O)C(F)(F)[C@@H]1O please.
Result string: 37.4 ± 1.4 min

Query string: Value lookup for t1/2 Caco-2 cell homogenates; key = CC[C@H](C)[C@H](N)C(=O)OC[C@H]1O[C@@H](n2ccc(N)nc2=O)C(F)(F)[C@@H]1OC(=O)[C@@H](N)[C@@H](C)CC
Result string: 2.1 ± 0.0 min

Query string: Bench note: what t1/2 Caco-2 cell homogenates did Nc1ccn([C@@H]2O[C@H](COC(=O)[C@H](N)Cc3ccccc3)[C@@H](O)C2(F)F)c(=O)n1 show?
Result string: 11.4 ± 0.2 min

Query string: For the compound CC(C)[C@H](N)C(=O)OC[C@H]1O[C@@H](n2ccc(N)nc2=O)C(F)(F)[C@@H]1OC(=O)[C@@H](N)C(C)C , what t1/2 Caco-2 cell homogenates is on record?
Result string: 0.9 ± 0.0 min

Values were extracted from patent US20070167353A1.
